growth: recorded values
System: U251 CNS
method: NCI-60 one-dose screen, 48 h (100 = growth as untreated, 0 = no growth, -100 = all killed)
cond: 10 µM unless noted
Compounds without any hit were thinned out: in the full panel of roughly 83,000, 20% have a hit.
reported_metric: growth (%)

INSERT INTO results (compound, test_target, quantity_unit, experimental_result) VALUES
  ('Brc1ccc2[nH]cc(-c3cncn3CCc3ccccc3)c2c1', 'U251 CNS', '%', 55.7),
  ('COc1cc(CC(=O)n2ncc3ccc(N)cc32)cc(OC)c1OC', 'U251 CNS', '%', 98.4),
  ('COc1ccc(C(=O)c2cc(C)c(OC)c(C)c2)c(OC)c1N(C(=O)CCl)C(=O)CCl', 'U251 CNS', '%', 16.1),
  ('O=C(/C=C/c1ccc[nH]1)c1ccc(-n2ccc(C(F)(F)F)n2)c(F)c1', 'U251 CNS', '%', 88.7),
  ('NNC(=O)c1ccc(-n2nc(-c3ccccc3)c3ccccc32)cc1', 'U251 CNS', '%', 22.6),
  ('Fc1ccc(-c2cn3c(nc4ccccc43)c(-c3ccccc3)n2)cc1', 'U251 CNS', '%', 91.5),
  ('OCc1cnccc1NCCCCOc1ccc(Oc2ccccc2)cc1', 'U251 CNS', '%', 52.3),
  ('Clc1ccc(-c2ccc(CNCC3CCNCC3)o2)c(-c2ccccc2)c1', 'U251 CNS', '%', -88.8),
  ('CCCCC[n+]1ccc(SCC(=O)N(C)c2ccc(Oc3ccccc3)cc2)c2ccccc21', 'U251 CNS', '%', 95.8),
  ('O=C(NCCc1ccccc1)Nc1ccc2cc3ccc(NC(=O)NCCc4ccccc4)cc3nc2c1', 'U251 CNS', '%', -26.4),
  ('Cc1cc2cc3ccc(N(C)C)cc3nc2cc1N', 'U251 CNS', '%', -2.3),
  ('COc1cc(C2=NN(C(C)=O)C(c3cc(OC)c(OC)c(OC)c3)C2)ccc1O (stereo not given)', 'U251 CNS', '%', 7.85),
  ('O=c1c2c(c(=O)n1O)c1c3ccc[nH]c3nc1c1nc3[nH]cccc3c12', 'U251 CNS', '%', 64.6),
  ('O=C(O)c1ccc(NCc2cn(-c3ccc(C(F)(F)F)cc3)nc2-c2ccc(C(=O)O)cc2)cc1', 'U251 CNS', '%', 99.7),
  ('COc1cc2nc(-c3ccc(C(F)(F)F)cc3)cc(OCCCN3CCCC3)c2cc1OC', 'U251 CNS', '%', 50.6),
  ('O=S(=O)(NCCCNc1nccc(-c2c(-c3cccc(F)c3)nc3sccn23)n1)c1cccc2ccccc12', 'U251 CNS', '%', 59.1),
  ('O=C1Nc2cc(-c3cccc([N+](=O)[O-])c3)ccc2/C1=C/c1ccc[nH]1', 'U251 CNS', '%', 98.8),
  ('CC1(C)NCCC[C@]2(C)[C@H]3CC(=O)[C@H]4[C@@H]5C[C@](C)(CO)CC[C@]5(C)CC[C@@]4(C)[C@]3(C)CC[C@@H]12', 'U251 CNS', '%', 91.4),
  ('[O-][n+]1c(Cl)cc(Cl)c2ccccc21', 'U251 CNS', '%', 92.9),
  ('CC(c1ccccc1)C(C(=O)c1ccccc1)c1ccccc1 (stereo not given)', 'U251 CNS', '%', 96.3);
